The reported numbers originate from patent US20180104303A1.

- target_under_test: recombinant alpha-glucosidase from Saccharomyces cerevisiae, which is a maltase (Saccharomyces cerevisiae)
- experiment_summary: cell-based or functional assay
Lab note: compare Inhibitory activity on α-glucosidase (IC50) in mg/ml against 2 mg/mL. Equal or greater, write class 1. Smaller, write class 0.

# example entries with known answers
| binder | answer_label |
| --- | --- |
| AVPYQR [AVPYQR (SEQ ID NO: 5)] | class 1 |
| SAPLRVY [SAPLRVY (SEQ ID NO: 3)] | class 0 |
| VGVAPG [VGVAPG (SEQ ID NO: 7)] | class 1 |

Has KW [KW peptide] a recorded Inhibitory activity on α-glucosidase (IC50) in mg/ml greater than or equal to 2 mg/mL?
class 1

Has AP [AP peptide] a recorded Inhibitory activity on α-glucosidase (IC50) in mg/ml greater than or equal to 2 mg/mL?
class 0
